# Test system: Staphylococcus saprophyticus
# test.name: Antibacterial activity against Staphylococcus saprophyticus ATCC 49453 after 24 hrs
# Type: functional
# applied.conditions: ATCC 49453, 24 h
Quick reference: MIC of the listed items.

* CC[C@@H](C)[C@@H](NC(=O)[C@@H](CCCNC(=N)N)NC(=O)[C@H](CO)NC(=O)[C@@H](NC(=O)[C@@H](Cc1ccccc1)NC)[C@@H](C)CC)C(=O)N[C@H](C(=O)N[C@@H](CO)C(=O)N[C@H]1C(=O)N[C@@H](C)C(=O)N[C@@H]([C@@H](C)CC)C(=O)N[C@@H]([C@@H](C)CC)C(=O)O[C@H]1C)[C@@H](C)CC | < 0.0625 µg/mL

Please give measured MIC of the following entry: CC[C@@H](C)[C@@H](NC(=O)[C@@H](CCC(N)=O)NC(=O)[C@H](CO)NC(=O)[C@@H](NC(=O)[C@@H](Cc1ccccc1)NC)[C@@H](C)CC)C(=O)N[C@H](C(=O)N[C@@H](CO)C(=O)N[C@H]1C(=O)N[C@@H](CCCNC(=N)N)C(=O)N[C@@H]([C@@H](C)CC)C(=O)N[C@@H]([C@@H](C)CC)C(=O)O[C@H]1C)[C@@H](C)CC < 0.0625 µg/mL
